target: STK24 (human); assay: KINOMEscan competition binding; settings: compound 10.0 µM
Rule for this label: Yes means kinase still bound, per cent of control is less than 70%; No means kinase still bound, per cent of control is at least 70%.

molecule: COc1cc(C)c(Sc2cnc(NC(=O)c3ccc(CNC(C)C(C)C)cc3)s2)cc1C(=O)N1CCN(C(C)=O)CC1 (centres undefined)
label-value: Yes

Qu. Problem: For the molecule `N#C/C(=C1/Nc2ccccc2S1)c1ccnc(NCCc2cccnc2)n1` , is kinase still bound, per cent of control under 70%?
Ans. No

Qu. Problem: For the molecule `CNC(=O)Nc1ccc(-c2nc(N3CC4CCC(C3)O4)c3cnn(C4CCC5(CC4)OCCO5)c3n2)cc1` , is kinase still bound, per cent of control under 70%?
Ans. No

Qu. Problem: For the molecule `COc1cc2c(Nc3ccc(NC(=O)c4ccccc4)cc3)ncnc2cc1OCCCN1CCOCC1` , is kinase still bound, per cent of control under 70%?
Ans. Yes

Qu. Problem: For the molecule `O=c1[nH]c2ccccc2n1C1CCN(Cc2ccc(-c3nc4cc5[nH]cnc5cc4nc3-c3ccccc3)cc2)CC1` , is kinase still bound, per cent of control under 70%?
Ans. No

Qu. Problem: For the molecule `COc1cc(N2CCC(C(N)=O)CC2)ccc1Nc1nc(N)c(Cl)c(Nc2ccccc2S(=O)(=O)C(C)C)n1` , is kinase still bound, per cent of control under 70%?
Ans. No
